Listing of entries alongside the reported pKd.
Biological target: T1, FcγRIIIA having a Val residue at polymorphic site 158 (human, UniProt P08637 17-208)
T1 construct: also called FcγRIIIA-158V; CD16a; not shown: His-tag fused to the C-terminus
T1 sequence (P08637 17-208 F176V): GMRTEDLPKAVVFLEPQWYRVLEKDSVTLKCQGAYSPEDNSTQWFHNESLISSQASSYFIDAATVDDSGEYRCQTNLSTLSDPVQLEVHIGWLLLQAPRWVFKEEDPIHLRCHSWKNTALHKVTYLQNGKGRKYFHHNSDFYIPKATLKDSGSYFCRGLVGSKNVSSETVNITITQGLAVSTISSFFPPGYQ
Experiment: SPR, Fc captured on Protein A, receptor injected; 1:1 Langmuir kinetic fit
As a rule, pKd stands for the negative log10 of the concentration, concentration in M.

Worked cases, answers included:
binder="IgG1 Fc variant Fc-290^hg (other, N-linked glycans at Asn297 and at engineered Asn290 (IgG1 heavy chain positions), KPR at 290-292 replaced by NST) EPKSCDKTHTCPPCPAPELLGGPSVFLFPPKPKDTLMISRTPEVTCVVVDVSHEDPEVKFNWYVDGVEVHNAKTNSTEEQYNSTYRVVSVLTVLHQDWLNGKEYKCKVSNKALPAPIEKTISKAKGQPREPQVYTLPPSREEMTKNQVSLTCLVKGFYPSDIAVEWESNGQPENNYKTTPPVLDSDGSFFLYSKLTVDKSRWQQGNVFSCSVMHEALHNHYTQKSLSLSPGK" reading=7.68
binder="IgG1 Fc variant Fc-226^hg/290^hg (other, N-linked glycans at Asn297 and at engineered Asn226 and Asn290 (IgG1 heavy chain positions), Both CPP (226-228) and KPR (290-292) replaced by NST) EPKSCDKTHTNSTCPAPELLGGPSVFLFPPKPKDTLMISRTPEVTCVVVDVSHEDPEVKFNWYVDGVEVHNAKTNSTEEQYNSTYRVVSVLTVLHQDWLNGKEYKCKVSNKALPAPIEKTISKAKGQPREPQVYTLPPSREEMTKNQVSLTCLVKGFYPSDIAVEWESNGQPENNYKTTPPVLDSDGSFFLYSKLTVDKSRWQQGNVFSCSVMHEALHNHYTQKSLSLSPGK" reading=7.56

Next binder, please.
Query: Would you kindly share the measured pKd for Fc-S298A/E333A/K334A (other, N-linked glycan at Asn297) EPKSCDKTHTCPPCPAPELLGGPSVFLFPPKPKDTLMISRTPEVTCVVVDVSHEDPEVKFNWYVDGVEVHNAKTKPREEQYNATYRVVSVLTVLHQDWLNGKEYKCKVSNKALPAPIAATISKAKGQPREPQVYTLPPSREEMTKNQVSLTCLVKGFYPSDIAVEWESNGQPENNYKTTPPVLDSDGSFFLYSKLTVDKSRWQQGNVFSCSVMHEALHNHYTQKSLSLSPGK ?
Result: 8.68

Data provenance is patent US20160280766A1.
